This section presents compounds with their documented CDK4 % Inhibition at 0.03 μM values.
# subject.of.test: human CDK4/cyclin D3 (Homo sapiens)
# Construct: made in house; host or cells: insect cells co-infected with baculovirus vectors
# Sequence (P11802 whole entry): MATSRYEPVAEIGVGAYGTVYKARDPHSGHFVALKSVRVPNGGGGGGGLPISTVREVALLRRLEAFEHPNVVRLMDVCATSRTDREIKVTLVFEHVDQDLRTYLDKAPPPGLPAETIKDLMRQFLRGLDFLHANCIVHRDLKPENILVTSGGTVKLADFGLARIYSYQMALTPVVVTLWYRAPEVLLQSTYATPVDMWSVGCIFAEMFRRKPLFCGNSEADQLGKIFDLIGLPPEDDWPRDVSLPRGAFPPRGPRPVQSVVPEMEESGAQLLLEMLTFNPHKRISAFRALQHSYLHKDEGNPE
# Sequence (P30281 1-264 partner limits assumed): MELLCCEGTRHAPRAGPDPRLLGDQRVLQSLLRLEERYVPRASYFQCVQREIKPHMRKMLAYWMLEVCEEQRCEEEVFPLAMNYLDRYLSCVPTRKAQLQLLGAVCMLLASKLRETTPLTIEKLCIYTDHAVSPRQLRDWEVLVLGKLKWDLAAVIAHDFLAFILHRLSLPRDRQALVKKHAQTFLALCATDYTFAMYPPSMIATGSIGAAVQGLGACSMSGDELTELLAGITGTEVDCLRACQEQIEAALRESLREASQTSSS
# run.description: Inhibition of CDK4/cyclin D retinoblastoma kinase activity (Ki; % inhibition)
# Type: biochemical
# protocol.conditions: at 0.03 μM
# Procedure: Cyclin-dependent kinase activity was measured by quantifying the enzyme-catalyzed, time-dependent incorporation of radioactive phosphate from [^32P]ATP or [^33P]ATP into a protein substrate. […] The phosphorylated substrate was then captured on a nitrocellulose or phosphocellulose membrane using a 96-well filtration manifold, and unincorporated radioactivity was removed by repeated washing with 0.85% phosphoric acid. Radioactivity was quantified by exposing the dried membranes to a phosphorimager. […]
The reply should contain only the number, in %.

COc1ccccc1CNC(=O)c1ccc(Nc2nc(N)c(C(=O)c3c(F)cccc3F)s2)cc1 ... 32

I'd like to know its CDK4 % Inhibition at 0.03 μM. The compound in question is CCC(NC(=O)c1ccc(Nc2nc(N)c(C(=O)c3c(F)cccc3F)s2)cc1)c1ccccc1 (stereo not shown)
7

Query (compound): "C[C@H](NC(=O)c1ccc(Nc2nc(N)c(C(=O)c3c(F)cccc3F)s2)cc1)C(N)=O" ; field requested: CDK4 % Inhibition at 0.03 μM
15

Data request, read-out CDK4 % Inhibition at 0.03 μM, for "Nc1nc(Nc2ccc(C(=O)Nc3ccc4nc[nH]c4c3)cc2)sc1C(=O)c1c(F)cccc1F"
22

# input compound: "Nc1nc(Nc2ccc(C(=O)Nc3ccc4c(c3)S(=O)(=O)NC4=O)cc2)sc1C(=O)c1c(F)cccc1F" ; wanted: its CDK4 % Inhibition at 0.03 μM
19

If you can, please state the reported CDK4 % Inhibition at 0.03 μM value of CC(CNC(=O)c1ccc(Nc2nc(N)c(C(=O)c3c(F)cccc3F)s2)cc1)N(C)C (stereo not shown) .
10

For "CC(C)c1ccc(NC(=O)c2ccc(Nc3nc(N)c(C(=O)c4c(F)cccc4F)s3)cc2)cc1" , what is its reported CDK4 % Inhibition at 0.03 μM?
3
